Tested on: CP185
Assay: qHTS profiling for inhibitors of Plasmodium falciparum proliferation (AID 504749); also: nearly all actives have a fitted effect of over 60% in size
Settings: P. falciparum in erythrocytes, SYBR Green DNA, 72 h; series mostly up to 28.7 µM
Records with an inconclusive call do not appear. The source made the active and inactive calls. Calls follow the shape of the dose curve; as a rule, active = well fitted inhibition curve with a large enough effect; inconclusive = small, poorly fitted or top-dose-only effect; inactive = flat fitted curve, though single readings scatter.
observable: Potency

Some solved entries appear below for comparison.
Per the record, "O=C(/C=C/c1ccccc1)NCCO" has Potency of inactive

Per the record, "O=C1CN(/N=C/c2ccc(-c3ccc([N+](=O)[O-])cc3)o2)C(=O)N1" has Potency of inactive

Per the record, "CCCSc1ccc2nc(NC(=O)OC)[nH]c2c1" has Potency of inactive

Per the record, "N=c1ccn2c(n1)O[C@H]1[C@H](O)[C@@H](CO)O[C@H]12" has Potency of inactive

Take each entry in turn and give its Potency.
1. O=C(O)/C=C/C(O)c1ccc(Cl)cc1 (stereo unspecified)
2. C=CC(N)CCC(=O)O (stereo unspecified)
3. COc1cc2c3cc1Oc1cc(ccc1O)C[C@@H]1c4c(cc(OC)c(O)c4Oc4ccc(cc4)C[C@@H]3N(C)CC2)CC[N+]1(C)C
4. Nc1cc(-c2ccncc2)c[nH]c1=O
5. CN1CCN(c2cc3c(nn2)Oc2ccccc2N3C)CC1
6. CC1OC1P(=O)(O)O (stereo unspecified)
7. C=CCCCCCCCCC(=O)O

Response line:
1. inactive
2. inactive
3. inactive
4. inactive
5. inactive
6. inactive
7. inactive

Take each entry in turn and give its Potency.
1. Clc1ccccc1-c1nc(-c2ccncc2)no1
2. Cc1cc(O)c2ccccc2c1O

Response line:
1. inactive
2. inactive

###

Test: qHTS of Trypanosoma Brucei Inhibitors: LOPAC Validation (AID 624147); also: potency is read from the fitted curve at half-maximal effect
Conditions: purified enzyme assay, luminescence, 45 min; series mostly up to 57.5 µM
Text: Members of the Trypanosomatidae family of parasitic protozoans cause a spectrum of diseases throughout the tropical and subtropical world. Sleeping sickness, caused by two subspecies of Trypanosoma brucei, is endemic to areas of sub-Saharan Africa, while Chagas' disease, a manifestation of Trypanosoma cruzi infection, is prevalent throughout Central and South America. […]
Results filed as inconclusive are left out. Active and inactive are the calls of the source. Calls come from the whole dose curve; as a rule, active = well fitted inhibition curve with a large enough effect; inconclusive = small, poorly fitted or top-dose-only effect; inactive = flat fitted curve, though single readings scatter.
observable: Potency

Some solved entries appear below for comparison.
Per the record, O=C(O)CNC(=O)C(CS)Cc1ccccc1 (stereo not given) has Potency of inactive

Per the record, O=C(CCCCCN1CCN(c2ccccc2-c2ccccc2)CC1)NC1CCCc2ccccc21 (stereo not given) has Potency of inactive

Per the record, "O=C1NC(=O)/C(=C/c2ccc(-c3ccc(F)cc3O)o2)S1" has Potency of inactive

Per the record, "CN(C)c1nc(N)c(C(=O)N=C(N)N)nc1Cl" has Potency of inactive

Take each entry in turn and give its Potency.
1. Nc1ncnc2c1c(I)cn2[C@@H]1C[C@H](N)[C@@H](O)[C@H]1O
2. CN=c1nc(-c2ccccc2)n(-c2ccccc2)s1
3. C#CCN1C(C)=C(C(=O)OC)C(c2cccc([N+](=O)[O-])c2)C(C(=O)OCC)=C1C (stereo not given)
4. N=C(N)SCCc1ccc(CCSC(=N)N)cc1

Response line:
inactive
8.49 µM (active)
inactive
inactive

Take each entry in turn and give its Potency.
1. OC[C@H]1O[C@@H](n2cnc3c(NC4CCCCC4)ncnc32)[C@H](O)[C@@H]1O
2. NC(=S)c1ccc[n+]([C@@H]2O[C@@H](COP(=O)([O-])OP(=O)(O)OC[C@H]3O[C@@H](n4cnc5c(N)ncnc54)[C@H](OP(=O)(O)O)[C@@H]3O)C(O)C2O)c1 (stereo not given in full)

Response line:
1. inactive
2. inactive

Take each entry in turn and give its Potency.
1. O=C(c1ccc(OCCCc2cnc[nH]2)cc1)C1CC1
2. O=S(=O)(c1cccc2c(I)cccc12)N1CCCNCC1
3. Nc1nc(Cl)nc2c1ncn2[C@@H]1O[C@H](CO)[C@@H](O)[C@H]1O
4. O=C1O/C(=C/Br)CCC1c1cccc2ccccc12 (stereo not given)
5. NCC1OC(O[C@H]2[C@H](O)[C@@H](OC3C(O)C(N)CC(N)C3OC3OC(CO)C(O)C(O)C3N)O[C@@H]2CO)C(N)C(O)C1O (stereo not given in full)

Response line:
1: inactive; 2: inactive; 3: inactive; 4: inactive; 5: inactive
